Quick reference: MIC50 of the listed items.
System: Peptostreptococcus anaerobius
Experiment: Antimicrobial activity against Peptostreptococcus anaerobius isolated from intra-abdominal infection and pelvic inflammatory disease patients after 48 hrs by agar dilution method
Assay type: functional
measured-property: MIC50

{"columns": ["compound", "target-desc", "result"],
 "data": [
  ["CO/N=C(\\C(=O)N[C@@H]1C(=O)N2C(C(=O)O)=C(CSc3nc(=O)c(O)nn3C)CS[C@H]12)c1csc(N)n1 [CEFTRIAXONE]", "Peptostreptococcus anaerobius", "0.5 mg/L"],
  ["C[C@@H](O)[C@H]1C(=O)N2C(C(=O)O)=C(SCCNC=N)C[C@H]12 [IMIPENEM ANHYDROUS]", "Peptostreptococcus anaerobius", "0.06 mg/L"],
  ["C[C@@H](O)[C@H]1C(=O)N2C(C(=O)O)=C(S[C@@H]3CN[C@H](C(=O)N(C)C)C3)[C@H](C)[C@H]12 [MEROPENEM]", "Peptostreptococcus anaerobius", "0.25 mg/L"],
  ["C[C@@H](O)[C@H]1C(=O)N2C(C(=O)O)=C(S[C@@H]3CN[C@H](CNS(N)(=O)=O)C3)[C@H](C)[C@H]12 [DORIPENEM]", "Peptostreptococcus anaerobius", "0.25 mg/L"],
  ["C[C@@H](O)[C@H]1C(=O)N2C(C(=O)O)=C(S[C@@H]3CN[C@H](C(=O)Nc4cccc(C(=O)O)c4)C3)[C@H](C)[C@H]12", "Peptostreptococcus anaerobius", "0.5 mg/L"],
  ["CCC[C@@H]1C[C@@H](C(=O)N[C@@H]([C@H]2O[C@H](SC)[C@H](O)[C@@H](O)[C@H]2O)[C@H](C)Cl)N(C)C1 [CLINDAMYCIN]", "Peptostreptococcus anaerobius", "0.03 mg/L"],
  ["Cc1ncc([N+](=O)[O-])n1CCO [METRONIDAZOLE]", "Peptostreptococcus anaerobius", "0.5 mg/L"]
]}
